Taken from ChEMBL document CHEMBL1129302.

System: L1210 (1565)
Experiment: Inhibitory activity against L1210:1565 cell growth.
Assay type: functional, cell-based, Mus musculus
Details: Mus musculus, L1210 (1565)
Measurement Name: log10 of IC50 (log10 of the value in µM)

- Item Smiles: "C#CCN(Cc1ccc2nc(C)nc(O)c2c1)c1ccc(C(=O)N[C@@H](CCC(=O)N[C@H](CCC(=O)O)C(=O)O)C(=O)O)c(F)c1"
  log10 of IC50: 0.89
- Item Smiles: "C#CCN(Cc1ccc2nc(C)nc(O)c2c1)c1ccc(C(=O)N[C@@H](CCC(=O)N[C@H](CCCC(=O)O)C(=O)O)C(=O)O)cc1"
  log10 of IC50: 1.43
- Item Smiles: "C#CCN(Cc1cc2c(O)nc(C)nc2cc1C)c1ccc(C(=O)N[C@@H](CCC(=O)N[C@H](CCC(=O)O)C(=O)O)C(=O)O)c(F)c1"
  log10 of IC50: 0.83
- Item Smiles: "C#CCN(Cc1cc2c(O)nc(C)nc2cc1C)c1ccc(C(=O)N[C@@H](CCC(=O)N[C@H](CCC(=O)O)C(=O)O)C(=O)O)cc1"
  log10 of IC50: 0.89
- Item Smiles: "C#CCN(Cc1ccc2nc(C)nc(O)c2c1)c1ccc(C(=O)N[C@@H](CCC(=O)N[C@H](CCC(=O)O)C(=O)O)C(=O)O)cc1"
  log10 of IC50: 1.18
- Item Smiles: "C#CCN(Cc1cc2c(O)nc(C)nc2cc1C)c1ccc(C(=O)N[C@@H](CCC(=O)N[C@H](CCCC(=O)O)C(=O)O)C(=O)O)c(F)c1"
  log10 of IC50: 1.08
- Item Smiles: "C#CCN(Cc1ccc2nc(C)nc(O)c2c1)c1ccc(C(=O)N[C@H](CCC(=O)N[C@H](CCC(=O)O)C(=O)O)C(=O)O)cc1"
  log10 of IC50: 2.00
- Item Smiles: "Cc1nc(O)c2cc(CN(C)c3ccc(C(=O)N[C@@H](CCC(=O)N[C@H](CCC(=O)O)C(=O)O)C(=O)O)c(F)c3)ccc2n1"
  log10 of IC50: 1.32

----------
System: L1210
Experiment: Inhibition of L1210 cell growth
Format: functional, cell-based, Mus musculus
Details: Mus musculus, L1210
pIC50: −log10 of the molar value.

- Molecule: "C#CCN(Cc1ccc2nc(C)nc(O)c2c1)c1ccc(C(=O)N[C@@H](CCC(=O)N[C@H](C)C(=O)O)C(=O)O)cc1"
  Study Target: "L1210"
  pIC50: 6.37
- Molecule: "C#CCN(Cc1cc2c(O)nc(C)nc2cc1C)c1ccc(C(=O)N[C@@H](CCC(=O)N[C@H](CCC(=O)O)C(=O)O)C(=O)O)cc1"
  Study Target: "L1210"
  pIC50: 6.68
- Molecule: "C#CCN(Cc1ccc2nc(C)nc(O)c2c1)c1ccc(C(=O)N[C@@H](CCC(=O)N[C@@H](C)C(=O)O)C(=O)O)cc1"
  Study Target: "L1210"
  pIC50: 6.21
- Molecule: "C#CCN(Cc1ccc2nc(C)nc(O)c2c1)c1ccc(C(=O)N[C@H](CCC(=O)N[C@H](CCC(=O)O)C(=O)O)C(=O)O)cc1"
  Study Target: "L1210"
  pIC50: 5.89
- Molecule: "Cc1nc(O)c2cc(CN(C)c3ccc(C(=O)N[C@@H](CCC(=O)N[C@H](CCC(=O)O)C(=O)O)C(=O)O)cc3)c(C)cc2n1"
  Study Target: "L1210"
  pIC50: 6.24
- Molecule: "C#CCN(Cc1ccc2nc(C)nc(O)c2c1)c1ccc(C(=O)N[C@@H](CCC(=O)N[C@H](CCC(=O)O)C(=O)O)C(=O)O)c(F)c1"
  Study Target: "L1210"
  pIC50: 6.68
- Molecule: "C#CCN(Cc1cc2c(O)nc(C)nc2cc1C)c1ccc(C(=O)N[C@@H](CCC(=O)N[C@H](CCCC(=O)O)C(=O)O)C(=O)O)c(F)c1"
  Study Target: "L1210"
  pIC50: 6.89
- Molecule: "C#CCN(Cc1ccc2nc(C)nc(O)c2c1)c1ccc(C(=O)N[C@@H](CCC(=O)N[C@@H](Cc2ccccc2)C(=O)O)C(=O)O)cc1"
  Study Target: "L1210"
  pIC50: 5.36
- Molecule: "Cc1nc(O)c2cc(CN(C)c3ccc(C(=O)N[C@@H](CCC(=O)N[C@H](CCC(=O)O)C(=O)O)C(=O)O)c(F)c3)ccc2n1"
  Study Target: "L1210"
  pIC50: 6.19
- Molecule: "C#CCN(Cc1ccc2nc(C)nc(O)c2c1)c1ccc(C(=O)N[C@@H](CCC(=O)NC(Cc2ccccc2)C(=O)O)C(=O)O)cc1 (stereo not given in full)"
  Study Target: "L1210"
  pIC50: 5.68
- Molecule: "Cc1nc(O)c2cc(CN(C)c3ccc(C(=O)N[C@@H](CCC(=O)N[C@H](CCC(=O)O)C(=O)O)C(=O)O)c(F)c3)c(C)cc2n1"
  Study Target: "L1210"
  pIC50: 6.59
- Molecule: "Cc1nc(O)c2cc(CN(C)c3ccc(C(=O)N[C@@H](CCC(=O)N[C@H](CCC(=O)O)C(=O)O)C(=O)O)cc3)ccc2n1"
  Study Target: "L1210"
  pIC50: 5.49
- Molecule: "C#CCN(Cc1cc2c(O)nc(C)nc2cc1C)c1ccc(C(=O)N[C@@H](CCC(=O)N[C@H](CCC(=O)O)C(=O)O)C(=O)O)c(F)c1"
  Study Target: "L1210"
  pIC50: 6.70
- Molecule: "C#CCN(Cc1ccc2nc(C)nc(O)c2c1)c1ccc(C(=O)N[C@@H](CCC(=O)N[C@@H](CCCC(=O)O)C(=O)O)C(=O)O)cc1"
  Study Target: "L1210"
  pIC50: 6.52
- Molecule: "CCN(Cc1ccc2nc(C)nc(O)c2c1)c1ccc(C(=O)N[C@@H](CCC(=O)N[C@H](CCC(=O)O)C(=O)O)C(=O)O)cc1"
  Study Target: "L1210"
  pIC50: 5.44

----------
Tested on: WIL2
Assay: Inhibitory activity against human W1L2 cell growth
Assay type: functional, cell-based
Settings: wil2
pIC50: −log10 of the molar value.
Measurement Name: pIC50

- Item Smiles: "C#CCN(Cc1cc2c(O)nc(C)nc2cc1C)c1ccc(C(=O)N[C@@H](CCC(=O)N[C@H](CCC(=O)O)C(=O)O)C(=O)O)c(F)c1"
  Measurement Name: "pIC50"
  Observed Result: 7.03
- Item Smiles: "C#CCN(Cc1ccc2nc(C)nc(O)c2c1)c1ccc(C(=O)N[C@@H](CCC(=O)N[C@@H](CCC(=O)O)C(=O)O)C(=O)O)cc1"
  Measurement Name: "pIC50"
  Observed Result: 5.62
- Item Smiles: "C#CCN(Cc1cc2c(O)nc(C)nc2cc1C)c1ccc(C(=O)N[C@@H](CCC(=O)N[C@H](CCCC(=O)O)C(=O)O)C(=O)O)c(F)c1"
  Measurement Name: "pIC50"
  Observed Result: 6.72

----------
We begin with a simple list: items and their reported concentration.
Species: Mus musculus
Assay: Plasma concentration in mice.
Assay type: ADME, organism-based
Conditions: in vivo, read-out: Plasma concentration

- Item Smiles: "C#CCN(Cc1ccc2nc(C)nc(O)c2c1)c1ccc(C(=O)N[C@@H](CCC(=O)N[C@H](CCCC(=O)O)C(=O)O)C(=O)O)cc1"
  Scale Unit: "µM"
  concentration: 31
- Item Smiles: "C#CCN(Cc1ccc2nc(C)nc(O)c2c1)c1ccc(C(=O)N[C@@H](CCC(=O)N[C@H](CCC(=O)O)C(=O)O)C(=O)O)cc1"
  Scale Unit: "µM"
  concentration: 34
- Item Smiles: "C#CCN(Cc1cc2c(O)nc(C)nc2cc1C)c1ccc(C(=O)N[C@@H](CCC(=O)N[C@H](CCC(=O)O)C(=O)O)C(=O)O)c(F)c1"
  Scale Unit: "µM"
  concentration: 32
- Item Smiles: "Cc1nc(O)c2cc(CN(C)c3ccc(C(=O)N[C@@H](CCC(=O)N[C@H](CCC(=O)O)C(=O)O)C(=O)O)cc3)ccc2n1"
  Scale Unit: "µM"
  concentration: 17

----------
log10(IC50) by entry:
Molecular target: Thymidylate synthase (Mus musculus)
Sequence (P07607 whole entry): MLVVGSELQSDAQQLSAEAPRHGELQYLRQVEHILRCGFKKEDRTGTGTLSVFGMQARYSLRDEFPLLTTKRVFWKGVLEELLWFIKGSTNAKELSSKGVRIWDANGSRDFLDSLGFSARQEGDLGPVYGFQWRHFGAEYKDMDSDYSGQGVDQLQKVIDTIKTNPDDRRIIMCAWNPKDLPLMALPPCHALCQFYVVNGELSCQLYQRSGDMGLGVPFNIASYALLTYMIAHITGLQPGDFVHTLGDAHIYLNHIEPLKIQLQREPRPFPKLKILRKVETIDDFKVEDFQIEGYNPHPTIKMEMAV
Test: Inhibition of Thymidylate synthase activity in L1210 cells
Measurement Name: log10(IC50) (log10 of the value in nM)

- Molecule: "Cc1nc(O)c2cc(CN(C)c3ccc(C(=O)N[C@@H](CCC(=O)N[C@H](CCC(=O)O)C(=O)O)C(=O)O)cc3)ccc2n1"
  log10(IC50): 1.53
- Molecule: "Cc1nc(O)c2cc(CN(C)c3ccc(C(=O)N[C@@H](CCC(=O)N[C@H](CCC(=O)O)C(=O)O)C(=O)O)c(F)c3)ccc2n1"
  log10(IC50): 0.94
- Molecule: "C#CCN(Cc1ccc2nc(C)nc(O)c2c1)c1ccc(C(=O)N[C@@H](CCC(=O)N[C@@H](Cc2ccccc2)C(=O)O)C(=O)O)cc1"
  log10(IC50): 1.26
- Molecule: "Cc1nc(O)c2cc(CN(C)c3ccc(C(=O)N[C@@H](CCC(=O)N[C@H](CCC(=O)O)C(=O)O)C(=O)O)cc3)c(C)cc2n1"
  log10(IC50): 0.66
- Molecule: "C#CCN(Cc1cc2c(O)nc(C)nc2cc1C)c1ccc(C(=O)N[C@@H](CCC(=O)N[C@H](CCCC(=O)O)C(=O)O)C(=O)O)c(F)c1"
  log10(IC50): -0.25
- Molecule: "C#CCN(Cc1cc2c(O)nc(C)nc2cc1C)c1ccc(C(=O)N[C@@H](CCC(=O)N[C@H](CCC(=O)O)C(=O)O)C(=O)O)c(F)c1"
  log10(IC50): -0.40
- Molecule: "C#CCN(Cc1ccc2nc(C)nc(O)c2c1)c1ccc(C(=O)N[C@@H](CCC(=O)NC(Cc2ccccc2)C(=O)O)C(=O)O)cc1 (stereo partly drawn)"
  log10(IC50): 1.48
- Molecule: "C#CCN(Cc1ccc2nc(C)nc(O)c2c1)c1ccc(C(=O)N[C@@H](CCC(=O)N[C@H](CCC(=O)O)C(=O)O)C(=O)O)c(F)c1"
  log10(IC50): 0.28
- Molecule: "C#CCN(Cc1ccc2nc(C)nc(O)c2c1)c1ccc(C(=O)N[C@@H](CCC(=O)N[C@@H](C)C(=O)O)C(=O)O)cc1"
  log10(IC50): 1.11
- Molecule: "C#CCN(Cc1ccc2nc(C)nc(O)c2c1)c1ccc(C(=O)N[C@@H](CCC(=O)N[C@H](C)C(=O)O)C(=O)O)cc1"
  log10(IC50): 1.08
- Molecule: "C#CCN(Cc1cc2c(O)nc(C)nc2cc1C)c1ccc(C(=O)N[C@@H](CCC(=O)N[C@H](CCC(=O)O)C(=O)O)C(=O)O)cc1"
  log10(IC50): 0.28
- Molecule: "CCN(Cc1ccc2nc(C)nc(O)c2c1)c1ccc(C(=O)N[C@@H](CCC(=O)N[C@H](CCC(=O)O)C(=O)O)C(=O)O)cc1"
  log10(IC50): 1.23
- Molecule: "Cc1nc(O)c2cc(CN(C)c3ccc(C(=O)N[C@@H](CCC(=O)N[C@H](CCC(=O)O)C(=O)O)C(=O)O)c(F)c3)c(C)cc2n1"
  log10(IC50): 0.30
